- tgt: recombinant human GST-SYK (Homo sapiens)
- Construct: purchased Carna Biosciences 08-176
- assayProtocol: Homogeneous Time-Resolved Fluorescence (HTRF) Assay for the Recombinant Human Syk Enzyme
- Type: biochemical
- conditionContext: GST-hSYK 5 pM, ATP 25 μM, 10-dose titration; read-out: IC50
metric: IC50 (nM)

Example results:
[
  {
    "compound": "COc1cccc(-c2cccc(Nc3cc(N[C@@H]4CCCC[C@@H]4N)ccc3C(N)=O)n2)c1 (relative stereo)",
    "metric": "IC50",
    "observedValue": 1.3
  },
  {
    "compound": "NC(=O)c1ccc(N[C@@H]2CCCC[C@@H]2N)cc1Nc1cccc(-c2ccc(F)c(F)c2)n1 (relative stereo)",
    "metric": "IC50",
    "observedValue": 1.6
  }
]

P = Cc1nc(Nc2cc(N[C@@H]3CCCC[C@@H]3N)ccc2C(N)=O)ccc1F (relative stereo)
Q = Cn1cc(-c2cccc(Nc3cc(N[C@@H]4CCCC[C@@H]4N)ccc3C(N)=O)n2)cn1 (relative stereo)
Q: Smaller IC50 value? Options are P and Q Could you answer with the label of the item you picked?
A: Q
(Q: 2 nM, P: 23 nM)

---

// IC50 lookup, one value per entry
- tgt: recombinant human GST-SYK (Homo sapiens, UniProt P43405)
- Construct: purchased Carna Biosciences 08-176
- assayProtocol: Homogeneous Time-Resolved Fluorescence (HTRF) Assay for the Recombinant Human Syk Enzyme
- Assay type: biochemical
- conditionContext: GST-hSYK 5 pM, ATP 25 μM, 10-dose titration; read-out: rhSYK Activity

Q: Answer briefly: IC50 recorded on recombinant human GST-SYK (Homo sapiens, UniProt P43405) for NC(=O)c1ccc(N[C@@H]2CCCC[C@@H]2N)cc1Nc1cccc(N2CCOCC2)n1 (relative stereo) [Example 1.5]
A: 15 to 50 nM

Q: Using recombinant human GST-SYK (Homo sapiens, UniProt P43405) as the test system, report measured IC50 of COc1cccc(-c2cccc(Nc3cc(N[C@@H]4CCCC[C@@H]4N)ccc3C(N)=O)n2)c1 (relative stereo) [Example 1.9] .
A: < 1.5 nM

Q: Write down measured IC50 (recombinant human GST-SYK (Homo sapiens, UniProt P43405)) for this compound. NC(=O)c1ccc(N[C@@H]2CCCC[C@@H]2N)cc1Nc1cccc(-c2ccccc2)n1 (relative stereo) [Example 1.7]
A: < 1.5 nM
